Source of measurements: ChEMBL document CHEMBL3396992

Activity overview
# Test system: Rattus norvegicus
# protocol-text: Antiinflammatory activity against carrageenan-induced paw edema male Wistar albino rat at 50 mg/kg, ip administered 30 mins prior to carrageenan-challenge measured after 2 hrs relative to control
# Type: functional
# test-parameters: route intraperitoneal
# output: bare number, implied unit %

Record excerpt, results attached:
INSERT INTO assay_data (smiles, readout_value) VALUES
  ('COc1ccc(-c2nc(-c3cn(-c4ccccc4)nc3-c3ccccc3)sc2C(=O)O)cc1', 79.33),
  ('CCOC(=O)c1sc(-c2cn(-c3ccccc3)nc2-c2ccc(Cl)cc2)nc1-c1ccc(F)cc1', 61.15),
  ('CCOC(=O)c1sc(-c2cn(-c3ccccc3)nc2-c2ccccc2)nc1-c1ccccc1', 75.2),
  ('CCOC(=O)c1sc(-c2cn(-c3ccccc3)nc2-c2ccc(OC)cc2)nc1-c1ccc(F)cc1', 85.12),
  ('O=C(O)c1sc(-c2cn(-c3ccccc3)nc2-c2ccc(Cl)cc2)nc1-c1ccc(F)cc1', 72.72);

Task: Query: Activity; subject: "CCOC(=O)c1sc(-c2cn(-c3ccccc3)nc2-c2ccc(OC)cc2)nc1-c1ccc(OC)cc1"
Result: 84.29

Task: Query: Activity; subject: "O=C(O)c1sc(-c2cn(-c3ccccc3)nc2-c2ccccc2)nc1-c1ccccc1"
Result: 67.76

Task: Query: Activity; subject: "CCOC(=O)c1sc(-c2cn(-c3ccccc3)nc2-c2ccccc2)nc1-c1ccc(OC)cc1"
Result: 76.03
